Could you please report measured IC50 for the items listed next?
# System: PLC/PRF/5 KSR2 OE (PLC cells overexpressing KSR2)
# assay-text: Cell IC50 assay (CCK8 cell viability), PLC/PRF/5 KSR2 OE
# Type: cell-based
# measurement-parameters: Homo sapiens, PLC-PRF-5; hepatoma cells, 72 h incubation, CCK8; read-out: IC50 value of cell viability, PLC/PRF/5 KSR2 OE (PLC cells overexpressing KSR2)
Unit µM implied. Number only.

Ask: Look up and report measured IC50 for this entry: CN1CCN(C2CN(C3CC(CNC(=O)c4nn(C)c5c4CSc4ccccc4-5)C3)C2)CC1 (centres unmarked) [Compound 77]
Reply: 21

Ask: Look up and report measured IC50 for this entry: CN1CCN(C2CCN(CC(F)(F)CNC(=O)c3nn(C)c4c3CSc3ccccc3-4)CC2)CC1 [Compound 33]
Reply: 19

Ask: Look up and report measured IC50 for this entry: CN1CCN(C2CN(CCCNC(=O)c3n[nH]c4c3COc3cc(C(F)(F)F)c(C#N)cc3-4)C2)CC1 [Compound 131]
Reply: 14

Ask: Look up and report measured IC50 for this entry: CN1CCN(C2CCN(CCCNC(=O)c3c4c(nn3C3COC3)-c3ccccc3SC4)CC2)CC1 [Compound 89]
Reply: 15

Ask: Look up and report measured IC50 for this entry: Cn1nc(C(=O)NCCCN2CCC(N3CCC(O)C3)CC2)c2c1-c1ccccc1SC2 (centres unmarked) [Compound 46]
Reply: 2

Ask: Look up and report measured IC50 for this entry: CN1CCN(C2CCN(CCCNC(=O)c3c4c(nn3C)-c3cc(Br)c(Cl)cc3OC4)CC2)CC1 [Compound 102]
Reply: 1

Ask: Look up and report measured IC50 for this entry: CN1CCN(C2CCN(CCCNC(=O)c3nn(C)c4c3COc3c(Cl)cccc3-4)CC2)CC1 [Compound 72]
Reply: 2

Ask: Look up and report measured IC50 for this entry: CCN1CCN(C2CN(CCCNC(=O)c3nn(C)c4c3COc3cc(Cl)ccc3-4)C2)CC1 [Compound 87]
Reply: 6

###

Could you please report measured pIC50 for the items listed next?
# System: PLC/PRF/5 KSR2 OE (PLC cells overexpressing KSR2)
# assay-text: Cell IC50 assay (CCK8 cell viability), PLC/PRF/5 KSR2 OE
# Type: cell-based
# measurement-parameters: Homo sapiens, PLC-PRF-5, 72 h, read-out: IC50 value of cell viability, PLC/PRF/5 KSR2 OE (PLC cells overexpressing KSR2)
Would you please state pIC50, meaning minus log10 of the concentration in mol/L, as a bare number?

Ask: Look up and report measured pIC50 for this entry: Cn1nc(C(=O)NCCN2CCN(C3CCCCC3)CC2)c2c1-c1ccccc1SC2 [Compound 11]
Reply: 4.46

Ask: Look up and report measured pIC50 for this entry: Cn1nc(C(=O)NCCCN2CCN(C3CCC3)CC2)c2c1-c1ccccc1SC2 [Compound 6]
Reply: 4.38

Ask: Look up and report measured pIC50 for this entry: Cn1nc(C(=O)NCCCN2CCN(C3CCCCC3)CC2)c2c1-c1ccccc1SC2 [Compound 8]
Reply: 4.21

Ask: Look up and report measured pIC50 for this entry: Cn1nc(C(=O)NCCCN2CCN(C3CCC(F)(F)CC3)CC2)c2c1-c1ccccc1SC2 [Compound 1]
Reply: 4.35

###

# System: PLC/PRF/5 KSR2 OE (PLC cells overexpressing KSR2)
# assay-text: Cell IC50 assay (CCK8 cell viability), PLC/PRF/5 KSR2 OE
# Type: cell-based
# measurement-parameters: Homo sapiens, PLC-PRF-5, 72 h, read-out: IC50 value of cell viability, PLC/PRF/5 KSR2 OE (PLC cells overexpressing KSR2)
Could you please report measured IC50 for the items listed next?
Unit µM implied. Number only.

Ask: Look up and report measured IC50 for this entry: Cn1nc(C(=O)NCCCN2CCN(CC3CC3)CC2)c2c1-c1ccccc1SC2 [Compound 5]
Reply: 25

Ask: Look up and report measured IC50 for this entry: Cn1nc(C(=O)NCCCN2CCN(C3CCOCC3)CC2)c2c1-c1ccccc1SC2 [Compound 2]
Reply: 84

Ask: Look up and report measured IC50 for this entry: Cn1nc(C(=O)NCCCN2CCN(Cc3ccccc3)CC2)c2c1-c1ccccc1SC2 [Compound 10]
Reply: 16

###

Could you please report measured pIC50 for the items listed next?
# System: MHCC97H KSR2 OE (97H cells overexpressing KSR2)
# assay-text: Cell IC50 assay (CCK8 cell viability), MHCC97H KSR2 OE
# Format: cell-based
# measurement-parameters: Homo sapiens, read-out: IC50 value of cell viability, MHCC97H KSR2 OE (97H cells overexpressing KSR2)
# Method: (1) Cell Preparation: Hepatoma cells (PLC/PRF/5, sourced from the Chinese Academy of Sciences; MHCC97H, sourced from this research institute) in good growth condition are prepared. The cells are trypsinized, diluted, and seeded into 96-well cell culture plates. 1,000-3,000 cells are added per well. […] (3) CCK8 Assay for Cell Viability: CCK8 is mixed with culture medium at a 1:10 ratio. […] After incubating for 2-4 h, the OD values are measured using a microplate reader. […]
Would you please state pIC50, meaning minus log10 of the concentration in mol/L, as a bare number?

Ask: Look up and report measured pIC50 for this entry: `Cn1nc(C(=O)NCCCN2CCN(Cc3ccccc3)CC2)c2c1-c1ccccc1SC2`
Reply: 4.42

Ask: Look up and report measured pIC50 for this entry: `Cn1nc(C(=O)NCCN2CCN(C3CCCCC3)CC2)c2c1-c1ccccc1SC2`
Reply: 4.21

Ask: Look up and report measured pIC50 for this entry: `Cn1nc(C(=O)NCCCN2CCN(C3CCC3)CC2)c2c1-c1ccccc1SC2`
Reply: 4.15

Ask: Look up and report measured pIC50 for this entry: `Cn1nc(C(=O)NCCCN2CCN(CC3CC3)CC2)c2c1-c1ccccc1SC2`
Reply: 4.36

Ask: Look up and report measured pIC50 for this entry: `Cn1nc(C(=O)NCCCN2CCN(C3CCC(F)(F)CC3)CC2)c2c1-c1ccccc1SC2`
Reply: 4.39

Ask: Look up and report measured pIC50 for this entry: `Cn1nc(C(=O)NCCCN2CCN(C3CCCCC3)CC2)c2c1-c1ccccc1SC2`
Reply: 4.21

###

# Tested on: PLC/PRF/5 KSR2 OE (PLC cells overexpressing KSR2)
# assay-text: Cell IC50 assay (CCK8 cell viability), PLC/PRF/5 KSR2 OE
# Assay type: cell-based
# measurement-parameters: Homo sapiens, PLC-PRF-5; hepatoma cells, 72 h incubation, CCK8; read-out: IC50 value of cell viability, PLC/PRF/5 KSR2 OE (PLC cells overexpressing KSR2)
Could you please report measured pIC50 for the items listed next?
Would you please state pIC50, meaning minus log10 of the concentration in mol/L, as a bare number?

Ask: Look up and report measured pIC50 for this entry: `CN1CCN(C2CCN(CCCNC(=O)c3c4c(nn3C)-c3cc(C#N)c(Cl)cc3OC4)CC2)CC1`
Reply: 5.40

Ask: Look up and report measured pIC50 for this entry: `COc1ccc(N2CCN(CCCNC(=O)c3nn(C)c4c3CSc3ccccc3-4)CC2)cc1`
Reply: 4.51

Ask: Look up and report measured pIC50 for this entry: `CN1CCN(C2CCN(CCCNC(=O)c3n[nH]c4c3COc3cc(Cl)c(C#N)cc3-4)CC2)CC1`
Reply: 5.40

Ask: Look up and report measured pIC50 for this entry: CCN1CCN(C2CCN(C3CC(CNC(=O)c4nn(C)c5c4CSc4ccccc4-5)C3)CC2)CC1 (stereo not shown)
Reply: 6.70

Ask: Look up and report measured pIC50 for this entry: `CCN1CCN(C2CCN(CCCNC(=O)c3nn(C)c4c3COc3cc(-c5cnn(C)c5)ccc3-4)CC2)CC1`
Reply: 5.70

Ask: Look up and report measured pIC50 for this entry: `CN1CCN(C2CCN(CCCNC(=O)c3nn(C)c4c3COc3cc(OC(F)(F)F)ccc3-4)CC2)CC1`
Reply: 5.40

Ask: Look up and report measured pIC50 for this entry: `Cn1nc(C(=O)NCCCN2CCN(C3CCCCC3)CC2)c2c1-c1ccccc1S(=O)(=O)C2`
Reply: 4.07

Ask: Look up and report measured pIC50 for this entry: `Cn1nc(C(=O)NCCCN2CCN(c3cccnc3)CC2)c2c1-c1ccccc1SC2`
Reply: 4.54

Ask: Look up and report measured pIC50 for this entry: `Cn1nc(C(=O)NCCCN2CCC(c3ccccc3)CC2)c2c1-c1ccccc1SC2`
Reply: 4.68

Ask: Look up and report measured pIC50 for this entry: `CN1CCN(C2CCN(CCCNC(=O)c3n[nH]c4c3COc3cc(Cl)ccc3-4)CC2)CC1`
Reply: 6.00

Ask: Look up and report measured pIC50 for this entry: `Cn1nc(C(=O)NCC(F)(F)CN2CCC(N3CCCCC3)CC2)c2c1-c1ccccc1SC2`
Reply: 4.92

Ask: Look up and report measured pIC50 for this entry: `Cn1nc(C(=O)NCC(F)(F)CN2CCC(N3CCOCC3)CC2)c2c1-c1ccccc1SC2`
Reply: 4.55

Ask: Look up and report measured pIC50 for this entry: `Cn1nc(C(=O)NCCCN2CCN(C3CCCCC3)CC2)c2c1-c1ccccc1OC2`
Reply: 4.59

Ask: Look up and report measured pIC50 for this entry: `Cn1nc(C(=O)NCCCN2CCN(c3cccc(Cl)c3)CC2)c2c1-c1ccccc1SC2`
Reply: 4.74

Ask: Look up and report measured pIC50 for this entry: `CN1CCN(C2CCN(CCCNC(=O)c3c4c(nn3C)-c3ccc(-n5nccn5)cc3OC4)CC2)CC1`
Reply: 5.70

Ask: Look up and report measured pIC50 for this entry: `CN1CCN(C2CCN(CCCNC(=O)c3nn(C)c4c3COc3cc(-c5cn[nH]c5)ccc3-4)CC2)CC1`
Reply: 5.10

Recorded values, source patent US20260115187A1.
